- system tested: D(2) dopamine receptor (Homo sapiens, UniProt P14416)
- Sequence (P14416 whole entry): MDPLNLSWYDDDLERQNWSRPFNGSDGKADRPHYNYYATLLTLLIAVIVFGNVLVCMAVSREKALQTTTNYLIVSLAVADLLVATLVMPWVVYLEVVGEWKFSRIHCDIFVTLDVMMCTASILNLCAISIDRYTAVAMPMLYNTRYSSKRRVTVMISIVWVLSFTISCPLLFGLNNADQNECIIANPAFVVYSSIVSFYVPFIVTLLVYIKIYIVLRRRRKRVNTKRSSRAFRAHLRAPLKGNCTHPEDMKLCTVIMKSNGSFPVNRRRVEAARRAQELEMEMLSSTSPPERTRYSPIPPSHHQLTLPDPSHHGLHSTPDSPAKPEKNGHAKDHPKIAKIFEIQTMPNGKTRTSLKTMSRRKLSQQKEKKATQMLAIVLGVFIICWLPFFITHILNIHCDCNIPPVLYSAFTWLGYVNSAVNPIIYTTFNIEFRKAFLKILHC
- protocol summary: Displacement of [3H]spiperone from human cloned dopamine D2L receptor expressed in CHO cells
- Assay type: cell-based
readout name: Ki (nM)

CSc1ccccc1N1CCN(CCCCNC(=O)c2cc3ccccn3n2)CC1 : 16

(P) CSc1ccccc1N1CCN(CCCNC(=O)c2cnn3ccccc23)CC1
(Q) Clc1ccc(N2CCN(CCCCCc3cc4ccccn4n3)CC2)cc1
(R) COc1ccccc1N1CCN(Cc2cc3ccccn3n2)CC1
Given 3 compounds, produce a descending ranking by Ki. Quick reminder: the answer is the labels in the order asked.
R, Q, P
(R: 280 nM, Q: 160 nM, P: 1.4 nM)
